Data provenance is ChEMBL document CHEMBL5143728.

Target: Toll-like receptor 1/2 (Mus musculus) (UniProt Q9QUN7+Q9EPQ1)
Test: Agonist activity at TLR1/TLR2 in wild type C57BL/6J mouse macrophages assessed as stimulation of TNF alpha release measured for 4 hrs by ELISA based assay relative to diprovocim-1
Assay type: cell-based
Design: concentration or dose not given beside the values
Settings: Macrophage, filed as agonist
value type: Activity (%)

Worked examples, 2 molecules total:
* C#CCOCC(=O)OCCCCCCCCCCCCNC(=O)[C@@H]1CN(C(=O)c2ccc(C(=O)N3C[C@@H](C(=O)N[C@H]4C[C@@H]4c4ccccc4)[C@H](C(=O)N[C@H]4C[C@@H]4c4ccccc4)C3)cc2)C[C@H]1C(=O)N[C@H]1C[C@@H]1c1ccccc1 | 110
* COC(=O)NCC(=O)OCCCCCCCCCCCCNC(=O)[C@@H]1CN(C(=O)c2ccc(C(=O)N3C[C@@H](C(=O)N[C@H]4C[C@@H]4c4ccccc4)[C@H](C(=O)N[C@H]4C[C@@H]4c4ccccc4)C3)cc2)C[C@H]1C(=O)N[C@H]1C[C@@H]1c1ccccc1 | 120

P: COC(=O)CNC(=O)OCCCCCCCCCCCCNC(=O)[C@@H]1CN(C(=O)c2ccc(C(=O)N3C[C@@H](C(=O)N[C@H]4C[C@@H]4c4ccccc4)[C@H](C(=O)N[C@H]4C[C@@H]4c4ccccc4)C3)cc2)C[C@H]1C(=O)N[C@H]1C[C@@H]1c1ccccc1
Q: CSCC[C@H](NC(=O)OC(C)(C)C)C(=O)OCCCCCCCCCCCCNC(=O)[C@@H]1CN(C(=O)c2ccc(C(=O)N3C[C@@H](C(=O)N[C@H]4C[C@@H]4c4ccccc4)[C@H](C(=O)N[C@H]4C[C@@H]4c4ccccc4)C3)cc2)C[C@H]1C(=O)N[C@H]1C[C@@H]1c1ccccc1
R: O=C(CNC(=O)OCc1ccccc1)OCCCCCCCCCCCCNC(=O)[C@@H]1CN(C(=O)c2ccc(C(=O)N3C[C@@H](C(=O)N[C@H]4C[C@@H]4c4ccccc4)[C@H](C(=O)N[C@H]4C[C@@H]4c4ccccc4)C3)cc2)C[C@H]1C(=O)N[C@H]1C[C@@H]1c1ccccc1
S: O=C(COCc1ccccc1)OCCCCCCCCCCCCNC(=O)[C@@H]1CN(C(=O)c2ccc(C(=O)N3C[C@@H](C(=O)N[C@H]4C[C@@H]4c4ccccc4)[C@H](C(=O)N[C@H]4C[C@@H]4c4ccccc4)C3)cc2)C[C@H]1C(=O)N[C@H]1C[C@@H]1c1ccccc1
Exercise: Sort ascending by Activity. Please express your ranking as an ordered list of the labels.
Solution: P, Q, S, R
(P: 90%, Q: 150%, S: 220%, R: 410%)

----------
Target: Toll-like receptor 1/2 (Mus musculus) (UniProt Q9QUN7+Q9EPQ1)
Experiment: Agonist activity at TLR1/TLR2 in wild type C57BL/6J mouse macrophages assessed as stimulation of TNF alpha release measured for 4 hrs by ELISA based assay relative to diprovocim-1
Type: cell-based
Parameters: concentration or dose not given beside the values
Settings: Macrophage, filed as agonist
value type: Activity (%)

• CC(C)(C)OC(=O)NC1(C(=O)OCCCCCCCCCCCCNC(=O)[C@@H]2CN(C(=O)c3ccc(C(=O)N4C[C@@H](C(=O)N[C@H]5C[C@@H]5c5ccccc5)[C@H](C(=O)N[C@H]5C[C@@H]5c5ccccc5)C4)cc3)C[C@H]2C(=O)N[C@H]2C[C@@H]2c2ccccc2)CC1 = 220

P: O=C(CNC(=O)OCC1c2ccccc2-c2ccccc21)OCCCCCCCCCCCCNC(=O)[C@@H]1CN(C(=O)c2ccc(C(=O)N3C[C@@H](C(=O)N[C@H]4C[C@@H]4c4ccccc4)[C@H](C(=O)N[C@H]4C[C@@H]4c4ccccc4)C3)cc2)C[C@H]1C(=O)N[C@H]1C[C@@H]1c1ccccc1
Q: CC(C)(C)OC(=O)/C=C/C(=O)NCC(=O)OCCCCCCCCCCCCNC(=O)[C@@H]1CN(C(=O)c2ccc(C(=O)N3C[C@@H](C(=O)N[C@H]4C[C@@H]4c4ccccc4)[C@H](C(=O)N[C@H]4C[C@@H]4c4ccccc4)C3)cc2)C[C@H]1C(=O)N[C@H]1C[C@@H]1c1ccccc1
R: O=C(O)/C=C/C(=O)NCC(=O)OCCCCCCCCCCCCNC(=O)[C@@H]1CN(C(=O)c2ccc(C(=O)N3C[C@@H](C(=O)N[C@H]4C[C@@H]4c4ccccc4)[C@H](C(=O)N[C@H]4C[C@@H]4c4ccccc4)C3)cc2)C[C@H]1C(=O)N[C@H]1C[C@@H]1c1ccccc1
Exercise: Sort the 3 molecules by Activity; largest first, smallest last. Form entry: labels listed in requested order.
Solution: P, Q, R
(P: 170%, Q: 110%, R: 60%)
